Molecular target: 3',5'-cyclic-AMP phosphodiesterase 4D (Homo sapiens, UniProt Q08499)
Sequence (Q08499 whole entry): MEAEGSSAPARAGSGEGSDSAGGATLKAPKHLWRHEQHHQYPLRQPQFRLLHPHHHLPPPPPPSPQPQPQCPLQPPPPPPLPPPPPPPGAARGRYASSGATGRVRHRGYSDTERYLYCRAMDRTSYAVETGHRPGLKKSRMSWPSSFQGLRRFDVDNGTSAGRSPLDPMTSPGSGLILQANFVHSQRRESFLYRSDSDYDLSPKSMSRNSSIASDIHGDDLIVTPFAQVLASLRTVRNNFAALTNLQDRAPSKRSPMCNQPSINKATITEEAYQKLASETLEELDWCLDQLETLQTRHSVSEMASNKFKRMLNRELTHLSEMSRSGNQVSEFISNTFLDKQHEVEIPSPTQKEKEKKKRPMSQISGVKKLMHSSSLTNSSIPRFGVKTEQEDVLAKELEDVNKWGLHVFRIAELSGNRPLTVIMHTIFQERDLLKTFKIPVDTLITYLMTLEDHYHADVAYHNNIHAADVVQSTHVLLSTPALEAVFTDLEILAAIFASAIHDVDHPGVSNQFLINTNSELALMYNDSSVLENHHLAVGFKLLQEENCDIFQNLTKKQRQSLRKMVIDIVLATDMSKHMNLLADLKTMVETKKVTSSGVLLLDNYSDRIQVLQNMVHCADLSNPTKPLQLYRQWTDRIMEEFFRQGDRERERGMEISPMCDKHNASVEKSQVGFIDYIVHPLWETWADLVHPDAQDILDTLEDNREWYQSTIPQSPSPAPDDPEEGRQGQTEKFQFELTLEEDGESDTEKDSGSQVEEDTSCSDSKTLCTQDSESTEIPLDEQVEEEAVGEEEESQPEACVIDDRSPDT
Test: Inhibition of PDE4D7 (unknown origin) using FAM-cyclic-3'5'-AMP as substrate at 100 nM incubated for 1 hrs by fluorescence polarization assay relative to control
Property Name: inhibition (%)

a. Fc1cc(-c2ccc(OC(F)F)c3nn(C4CC4)cc23)ccn1
b. COc1ccc(-n2ccc3cc(C#N)ccc32)c2cn(C3CC3)nc12
// query Quick check, higher inhibition between a and b ? API: response body contains the label of the selected item.
// result a
(a: 38%, b: 16%)

* * *

Biological target: 3',5'-cyclic-AMP phosphodiesterase 4D (Homo sapiens, UniProt Q08499)
Test: Inhibition of PDE4D7 (unknown origin) using FAM-cyclic-3'5'-AMP as substrate at 100 nM incubated for 1 hrs by fluorescence polarization assay relative to control
Property Name: inhibition (%)

>>> endpoint_result("CC(=O)c1cccc(-c2ccc(OC(F)F)c3nn(C4CC4)cc23)c1")
88
>>> endpoint_result("COc1ccc(-c2cccc(CN)c2)c2cn(C3CC3)nc12")
71
>>> endpoint_result("COc1ccc(-c2cccc(C(C)=O)c2)c2cn(C3(C(=O)NCC(C)C)CC3)nc12")
4

I. COc1ccc(-c2cccc(C(N)=O)c2)c2cn(C3CC3)nc12
II. COc1ccc(-c2cc(C#N)cc(Cc3ccccc3)c2)c2cn(C3CC3)nc12
// query Quick check, higher inhibition between I and II ? API: response body contains the label of the selected item.
// result I

1. COc1cc(OC)cc(-c2ccc(OC(F)F)c3nn(C4CC4)cc23)c1
2. FC(F)Oc1ccc(N2CCOCC2)c2cn(C3CC3)nc12
3. COc1cc(-c2ccc(OC(F)F)c3nn(C4CC4)cc23)ccn1
4. FC(F)Oc1ccc(-c2ccnc(Cl)c2)c2cn(C3CC3)nc12
// query Please rank these compounds by inhibition in descending order. Form entry: labels listed in requested order.
// result 4, 3, 2, 1

a. O=C(NCc1ccccc1)c1cc(-c2ccc(OC(F)F)c3nn(C4CC4)cc23)ccn1
b. COc1cc(-c2ccc(OC(F)F)c3nn(C4CC4)cc23)cc2c1OCO2
// query Quick check, higher inhibition between a and b ? API: response body contains the label of the selected item.
// result b

I. CNc1cc(-c2ccc(OC(F)F)c3nn(C4CC4)cc23)ccn1
II. CC(C)(O)C1CN(c2ccc(OC(F)F)c3nn(C4CC4)cc23)C1
III. FC(F)Oc1ccc(-c2ccnc(N3CCOCC3)c2)c2cn(C3CC3)nc12
IV. COc1cc(-c2ccc(OC)c3nn(C4CC4)cc23)cc(OC)c1OC
V. COc1ccc(-c2cccc(C#N)c2)c2cn(C3CC3)nc12
// query Please rank these compounds by inhibition in descending order. Form entry: labels listed in requested order.
// result IV, I, III, V, II
(IV: 73%, I: 18%, III: 11%, V: 6%, II: 4%)
